The measurements presented in this section are drawn from PubChem BioAssay (NCI).

- Test system: HL-60(TB) leukemia
- method_description: NCI-60 one-dose screen, 48 h (100 = growth as untreated, 0 = no growth, -100 = all killed)
- cond: 10 µM unless noted
Compounds without any hit were thinned out: in the full panel of roughly 83,000, 20% have a hit.
Task for the reader: assign each of the following molecules its reported growth.
Numbers only, in %.

Items follow; give growth for each.
1. CCOC(=O)c1sc2ncnc(Nc3ccc(NC(=O)Nc4ccc(Cl)cc4)cc3)c2c1C
2. CCN(CC)CCNCC(=O)Oc1ccc(/C=C/C(=O)CC(=O)/C=C/c2ccc(OC(=O)CNCCN(CC)CC)c(OC)c2)cc1OC
3. Cc1cccc(Cl)c1NC(=O)c1ccc2nc(NC(=O)NCCN(C)C)sc2c1

[91.4, -22.6, 115]

Items follow; give growth for each.
1. COC(=O)C1(O)NC(=C(C#N)C#N)C(C#N)=C1C(=O)c1ccc(OC)c(OC)c1 (stereo not given)
2. O=C(Cn1c(C(=O)c2ccccc2)nc2ccccc21)c1ccc(F)cc1

79
17.4
